# Read-out: Nuclear factor NF-kappa-B p105 subunit (Homo sapiens) (UniProt P19838)
# Sequence (P19838 whole entry, looked up): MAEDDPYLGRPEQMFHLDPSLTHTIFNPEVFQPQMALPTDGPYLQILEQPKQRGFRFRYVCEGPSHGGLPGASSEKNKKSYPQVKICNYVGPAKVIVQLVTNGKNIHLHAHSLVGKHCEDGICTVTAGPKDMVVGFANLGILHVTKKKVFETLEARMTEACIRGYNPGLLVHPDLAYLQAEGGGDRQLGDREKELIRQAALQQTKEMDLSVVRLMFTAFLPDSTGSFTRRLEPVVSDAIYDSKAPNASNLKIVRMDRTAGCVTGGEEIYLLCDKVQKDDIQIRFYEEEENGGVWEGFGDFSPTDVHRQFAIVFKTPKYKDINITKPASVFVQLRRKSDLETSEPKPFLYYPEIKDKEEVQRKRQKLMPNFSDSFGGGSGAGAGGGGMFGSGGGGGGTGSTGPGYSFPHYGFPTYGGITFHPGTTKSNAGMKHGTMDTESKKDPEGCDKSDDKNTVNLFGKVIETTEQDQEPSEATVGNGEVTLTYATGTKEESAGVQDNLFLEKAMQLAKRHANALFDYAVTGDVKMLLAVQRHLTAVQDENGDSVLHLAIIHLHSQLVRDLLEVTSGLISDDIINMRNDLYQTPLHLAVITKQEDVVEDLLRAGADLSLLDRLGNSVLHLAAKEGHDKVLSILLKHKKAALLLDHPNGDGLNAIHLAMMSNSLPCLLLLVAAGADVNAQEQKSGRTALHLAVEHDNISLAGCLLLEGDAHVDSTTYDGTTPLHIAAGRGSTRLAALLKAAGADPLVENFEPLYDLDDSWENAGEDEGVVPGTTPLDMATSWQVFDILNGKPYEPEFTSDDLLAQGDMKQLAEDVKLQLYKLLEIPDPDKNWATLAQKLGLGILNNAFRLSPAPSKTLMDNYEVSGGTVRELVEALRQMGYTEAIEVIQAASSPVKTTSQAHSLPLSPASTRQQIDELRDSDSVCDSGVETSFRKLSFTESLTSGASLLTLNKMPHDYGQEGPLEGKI
# METHOD: LTEA_HepaRG_NFKB1: Life Technologies and Expression Analysis (LTEA) Assay for Nuclear Factor Kappa B Subunit 1 (NFKB1) using HepaRG (AID 2283521);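 for outcome: differentiated human HepaRG liver cells in serum-free induction medium; TaqMan qRT-PCR transcript normalised to ACTB GAPDH and POLR2A housekeeping genes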
# ASSAY_CONDITIONS: mRNA level, 48 h; actives raise or lower the signal
Activity calls are given as the source filed them. Rule for the calls: active = hit-call score of the fitted dose curve at least 0.9, where 1 is the maximum; inactive = score below 0.9.
Please answer using one outcome listed in 1 (active), -1 (inactive)

Check out these entries, answers already filled in.
- MOLECULE: "Cc1cc(CCN2CCN(c3nsc4ccccc34)CC2)cc2c1NC(=O)CC2(C)C"
  LABEL: -1
- MOLECULE: "COCC(C)OCC(C)O (stereo unspecified)"
  LABEL: -1
- MOLECULE: "CCCOc1sc(C(=O)N2CCC(c3cc(CN)ccc3F)CC2)c(C)c1Br"
  LABEL: -1
- MOLECULE: "COc1ccc([N+](=O)[O-])cc1N"
  LABEL: -1
- MOLECULE: "ClC1=C(Cl)C(Cl)(Cl)C(Cl)=C1Cl"
  LABEL: -1
- MOLECULE: "CC(C)CCCCCCOC(=O)CCCCC(=O)OCCCCCCC(C)C"
  LABEL: -1
- MOLECULE: "CCOC(=O)CC(O)(CC(=O)OCC)C(=O)OCC"
  LABEL: -1
- MOLECULE: "CC#C[C@]1(O)CC[C@H]2[C@@H]3CCC4=CC(=O)CCC4=C3[C@@H](c3ccc(N(C)C)cc3)C[C@@]21C"
  LABEL: 1

Input: What was the test verdict on C=C(C)C(=O)OCCC(F)(F)C(F)(F)C(F)(F)C(F)(F)C(F)(F)C(F)(F)F ?
Output: -1

Input: Hi, sorry to bother you, what did the test record for CN1CCN(c2ccccc2/C=C2\SCCN(c3ccc(Cl)c(Cl)c3)C2=O)CC1 ?
Output: -1

Input: Would you mind telling me which call this test gave O=C(O)c1ccccc1C(c1ccc(O)cc1)c1ccc(O)cc1 ?
Output: -1

###

# METHOD: APR_HepG2_MitoticArrest_72hr: Apredica 72-hour HepG2 Assay for Mitotic Arrest (AID 2282918)
# ASSAY_CONDITIONS: high-content imaging, actives raise or lower the signal
The source made the active and inactive calls. The calls were made as follows: active = hit-call score of the fitted dose curve at least 0.9, where 1 is the maximum; inactive = score below 0.9.
TEST_READOUT: AC50

// solved cases for AC50 follow
- MOLECULE: "CC#C[C@]1(O)CC[C@H]2[C@@H]3CCC4=CC(=O)CCC4=C3[C@@H](c3ccc(N(C)C)cc3)C[C@@]21C"
  VALUE_REPORTED: "inactive"
- MOLECULE: "CCCCC[C@H](O)CC(=O)CCc1ccc(O)c(OC)c1"
  VALUE_REPORTED: "inactive"
- MOLECULE: "CC1=C(/C=C/C(C)=C/C=C/C(C)=C/C(=O)O)C(C)(C)CCC1"
  VALUE_REPORTED: "inactive"
- MOLECULE: "CCOC(=O)CC(O)(CC(=O)OCC)C(=O)OCC"
  VALUE_REPORTED: "inactive"
- MOLECULE: "OCCC(F)(F)C(F)(F)C(F)(F)C(F)(F)C(F)(F)C(F)(F)F"
  VALUE_REPORTED: "inactive"
- MOLECULE: "C=C(C)C(=O)OCCC(F)(F)C(F)(F)C(F)(F)C(F)(F)C(F)(F)C(F)(F)F"
  VALUE_REPORTED: "inactive"
- MOLECULE: "CCCCCCCCCCCCCCCS(=O)(=O)Oc1ccccc1"
  VALUE_REPORTED: "inactive"
- MOLECULE: "CCCCCCCCCCCCN1CCCC1=O"
  VALUE_REPORTED: "62.4 µM (active)"
- MOLECULE: "C#C[C@]1(O)CC[C@H]2[C@@H]3CCC4=CC(=O)CC[C@@H]4[C@H]3CC[C@@]21C"
  VALUE_REPORTED: "inactive"
- MOLECULE: "CC(C)CCCCCCOC(=O)CCCCC(=O)OCCCCCCC(C)C"
  VALUE_REPORTED: "inactive"

Take each entry in turn and give its AC50.
1. O=C(O)Cc1cc(I)c(Oc2cc(I)c(O)c(I)c2)c(I)c1
2. COc1cc(CCC(=O)CC(=O)CCc2ccc(O)c(OC)c2)ccc1O
3. CC(C)(C)c1ccc(O)c(C(C)(C)C)c1
4. NC(=O)N(O)[C@@H]1C=C[C@H](Oc2cccc(Oc3ccc(F)cc3)c2)C1
5. OC1CCCCC1
6. COCC(C)OCC(C)O (stereo unspecified)

Output:
1: inactive; 2: 166 µM (active); 3: inactive; 4: 85.4 µM (active); 5: inactive; 6: inactive

Dear colleague, could you send me AC50 for each of the items below? Thanks.
1. Oc1cccc(O)c1
2. CCCOc1sc(C(=O)N2CCC(c3cc(CN)ccc3F)CC2)c(C)c1Br
3. CCCCCCCCOC(=O)CCCCCCCCC(=O)OCCCCCCCC
4. CCCCCCCC(=O)O
5. COC(=O)CCCCC(=O)OC

Output:
1. inactive
2. 5.79 µM (active)
3. inactive
4. inactive
5. inactive

Quick one: give me AC50 for each item below, same order please.
1. COc1ccc([N+](=O)[O-])cc1N
2. CC(C)(C)CC(C)(C)c1ccc(O)c(-n2nc3ccccc3n2)c1
3. CC[C@H](C)[C@@H](C(=O)O)n1sc2ccccc2c1=O
4. CCCCC(CC)COC(=O)CCCCC(=O)OCc1ccccc1 (stereo unspecified)
5. CCN(CC)CCNc1ccc(CNC=O)c2sc3ccc(OC)cc3c(=O)c12

Output:
inactive
35.6 µM (active)
inactive
inactive
5 µM (active)

List the reported AC50 of each molecule below.
1. c1ccc2c(c1)ccc1ccccc12
2. NC(=O)N1C(=O)C(C(=O)c2cc(Cl)cs2)c2cc(F)c(Cl)cc21 (stereo unspecified)
3. ClC1=C(Cl)C(Cl)(Cl)C(Cl)=C1Cl

Output:
1. inactive
2. 47.7 µM (active)
3. inactive

###

# METHOD: Tanguay_ZF_120hpf_ActivityScore_legacy: (Legacy) Oregon State University Tanguay Lab 120 Hour Post-fertilization zebrafish Assay Score for Activity (AID 2283742);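 for AC50: dechorionated Tropical 5D wild-type zebrafish embryos held singly per well; static exposure from 6 hpf until 120 hpf at 28 °C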
Activity calls are given as the source filed them. How the source made its calls: active means hit-call score of the fitted dose curve at least 0.9, where 1 is the maximum; inconclusive means response in the unintended direction; inactive means score below 0.9.
TEST_READOUT: AC50

Illustrative cases are given below, each with its answer.
- COMPOUND: "CCCOc1sc(C(=O)N2CCC(c3cc(CN)ccc3F)CC2)c(C)c1Br"
  AC50: "inactive"
- COMPOUND: "NC(=O)N(O)[C@@H]1C=C[C@H](Oc2cccc(Oc3ccc(F)cc3)c2)C1"
  AC50: "inactive"
- COMPOUND: "Cc1cc(CCN2CCN(c3nsc4ccccc34)CC2)cc2c1NC(=O)CC2(C)C"
  AC50: "3.78 µM (active)"
- COMPOUND: "CCCCC(CC)COC(=O)CCCCC(=O)OCc1ccccc1 (stereo not given)"
  AC50: "inactive"
- COMPOUND: "CC#C[C@]1(O)CC[C@H]2[C@@H]3CCC4=CC(=O)CCC4=C3[C@@H](c3ccc(N(C)C)cc3)C[C@@]21C"
  AC50: "27.9 µM (active)"
- COMPOUND: "C#C[C@]1(O)CC[C@H]2[C@@H]3CCC4=CC(=O)CC[C@@H]4[C@H]3CC[C@@]21C"
  AC50: "inactive"
- COMPOUND: "Oc1cc2ccccc2c2ccccc12"
  AC50: "31.4 µM (active)"
- COMPOUND: "CC(C)(C)CC(C)(C)c1ccc(O)c(-n2nc3ccccc3n2)c1"
  AC50: "inactive"

Please give AC50, item by item, for the list that follows.
1. C[C@@H]1C[C@H]2[C@@H]3CCC4=CC(=O)C=C[C@]4(C)[C@@]3(F)[C@@H](O)C[C@]2(C)[C@@]1(O)C(=O)COP(=O)(O)O
2. CC(C)(C)c1cc(C(C)(C)C)c(O)c(C(C)(C)C)c1

Output:
1. inactive
2. inactive

###

# Read-out: Interleukin-8 (IL8), CXCL8 (gene 3576)
# METHOD: BSK_hDFCGF_IL8: BioMAP Diversity Plus: hDFCGF Assay for Interleukin-8 (IL8) Biomarker Activity (AID 2283058)
# ASSAY_CONDITIONS: primary human foreskin fibroblasts; actives raise or lower the signal
Active and inactive are the calls of the source. The calls were made as follows: active = hit-call score of the fitted dose curve at least 0.9, where 1 is the maximum; inactive = score below 0.9.
Field 'call' accepts 1.0 = active, 0.0 = inactive

Recorded results for 5 compounds are shown here.
- COMPOUND: "CCCCCCCC(=O)O"
  LABEL: 0.0
- COMPOUND: "C=C(C)C(=O)OCCC(F)(F)C(F)(F)C(F)(F)C(F)(F)C(F)(F)C(F)(F)F"
  LABEL: 0.0
- COMPOUND: "CC(C)CCCCCCOC(=O)CCCCC(=O)OCCCCCCC(C)C"
  LABEL: 0.0
- COMPOUND: "CN1CCC[C@H]1c1cccnc1"
  LABEL: 0.0
- COMPOUND: "CN1CCN(c2ccccc2/C=C2\\SCCN(c3ccc(Cl)c(Cl)c3)C2=O)CC1"
  LABEL: 1.0

Input: Hi, do you know how Oc1cc2ccccc2c2ccccc12 came out in this test?
Output: 1.0

Input: How was COCC(C)O (configuration not stated) classified in this test?
Output: 0.0
